Listed next: entries and their corresponding protein stability index.
B1: CLCN6 (parent)
chain: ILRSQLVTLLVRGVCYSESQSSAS

variants of: B1; experiment: protein stability index of a GFP-peptide fusion (GPS, HEK-293T) (PSI 1-6); higher = more stable; conditions: c terminus: a fixed tail appended;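 note: lentivirally expressed fusions sorted by FACS into six bins by GFP to DsRed ratio, PSI derived from sequencing read proportions per bin multiplied by bin number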
Could you keep your reply to the number by itself?

Example entries begin here.
L6W : 3.18
Q5D : 2.31
L9A : 3.4
E18R : 2.1
L10K : 2.05

As a next step, examine the variant that follows.
[in] Name the recorded protein stability index for `Q20T` .
[out] 1.8

The values you see were collected from the supplement of paper PMC10567573.
